Test: chemical genetic growth profiling, strain panel (AID 1159580);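 also: tested at 20 µM; growth read once vehicle control cultures reached saturation at 30 °C; 1 = growth at the plate median or of vehicle wells; lower values mean less growth of the strain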
Details: S. cerevisiae deletion strains, growth OD, locus YNR049C, strain mso1, active compounds read low
In all, about 5,500 compounds went through this assay and about 2,000 (36%) were called active. Another 18% or so got no clear call; they are omitted. Some of the results follow.
outcome measure: normalized growth
Just the number, please, no unit after it.

Tell me the measured normalized growth of CC(=O)O[C@H]1C(=O)[C@@]2(C)C([C@H](OC(=O)c3ccccc3)[C@]3(O)C[C@H](OC(=O)[C@H](O)[C@@H](NC(=O)c4ccccc4)c4ccccc4)C(C)=C1C3(C)C)[C@]1(OC(C)=O)CO[C@@H]1C[C@@H]2O (stereo partly drawn) , please.
1

Tell me the measured normalized growth of `COc1ccc2c(c1)OC[C@@H](Cc1ccc(OC)c(OC)c1)[C@H]2O` , please.
1.01

Need normalized growth of NCC1CCCCC1CC(=O)O (stereo not drawn) , thanks.
1.02

Item CC1(C)C2CC[C@]3(C)C(C(=O)C=C4[C@H]5C[C@@](C)(C(=O)O)CC[C@]5(C)CC[C@]43C)[C@@]2(C)CC[C@@H]1O (stereo partly drawn) has what recorded normalized growth?
1.01

Need normalized growth, item `NC/C=C/C(=O)O`
1.01

Given `Cc1cc(OC(=O)N2CCCCC2)c(C(C)C)cc1[N+](C)(C)C` , state its recorded normalized growth.
1.01

Quick one: normalized growth for `COc1cc(OC)c2c(c1)O[C@H](c1ccc(OC)c(OC)c1)[C@@H](O)C2` ?
0.988

I'd like to know its normalized growth. The compound in question is `O=[N+]([O-])O[C@H]1CO[C@H]2[C@@H]1OC[C@H]2O[N+](=O)[O-]`
0.981
